subject_of_test: 5-hydroxytryptamine receptor 1B (Homo sapiens) (UniProt P28222)
Sequence (P28222 whole entry): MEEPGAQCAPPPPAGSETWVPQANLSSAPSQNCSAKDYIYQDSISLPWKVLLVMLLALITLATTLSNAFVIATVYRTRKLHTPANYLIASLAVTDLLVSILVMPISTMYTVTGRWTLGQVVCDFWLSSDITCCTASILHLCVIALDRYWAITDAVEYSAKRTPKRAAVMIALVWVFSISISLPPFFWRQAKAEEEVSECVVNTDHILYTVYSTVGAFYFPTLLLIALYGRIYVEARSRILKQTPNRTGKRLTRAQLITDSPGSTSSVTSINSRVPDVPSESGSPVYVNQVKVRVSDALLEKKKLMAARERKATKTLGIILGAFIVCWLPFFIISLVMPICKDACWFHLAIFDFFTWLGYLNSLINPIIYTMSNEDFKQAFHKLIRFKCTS
assay_setup: Compound concentration 10 µM
Description: PDSP Primary Binding target: HTR1B - Compounds are tested at 10 uM concentration, plate are incubated at room temperature in the dark for 90 minutes. Reaction are stopped by vacuum filtration onto 0.3% polyethyleneimine soaked filter mats using Filtermate harvester. Scintilation cocktail is then melted onto microwave-dried filters on a hot plate and the radio activity is counted in Microbia counter.
inhibition vs 20%: at or above is rule met, below is rule not met.

- compound: "C=CCN1C[C@H](C)N([C@H](c2ccc(C(=O)N(CC)CC)cc2)c2cccc(O)c2)C[C@H]1C"
  subject_of_test: "5-hydroxytryptamine receptor 1B (Homo sapiens) (UniProt P28222)"
  label_class: "rule met"
- compound: "CC(C)(C)NC[C@H](O)COc1nsnc1N1CCOCC1"
  subject_of_test: "5-hydroxytryptamine receptor 1B (Homo sapiens) (UniProt P28222)"
  label_class: "rule not met"
- compound: "Cc1cccc(NC(=O)N[C@@H]2N=C(c3ccccc3)c3ccccc3N(C)C2=O)c1"
  subject_of_test: "5-hydroxytryptamine receptor 1B (Homo sapiens) (UniProt P28222)"
  label_class: "rule not met"
- compound: "CNC[C@H](O)c1cccc(O)c1"
  subject_of_test: "5-hydroxytryptamine receptor 1B (Homo sapiens) (UniProt P28222)"
  label_class: "rule not met"

Challenge: Threshold query (inhibition >= 20%) on C[N+]1(C)[C@@H]2C[C@@H](OC(=O)C(O)(c3cccs3)c3cccs3)C[C@H]1[C@@H]1O[C@@H]12
Response given: rule not met

Challenge: Threshold query (inhibition >= 20%) on CN(C)C(=O)N[C@H]1CC[C@H](CCN2CCN(c3cccc(Cl)c3Cl)CC2)CC1
Response given: rule met

Challenge: Threshold query (inhibition >= 20%) on Oc1ccc2c3c1O[C@H]1c4[nH]c5c(c4C[C@@]4(O)[C@@H](C2)N(CC2CC2)CC[C@]314)C[C@@]1(O)[C@H]2Cc3ccc(O)c4c3[C@@]1(CCN2CC1CC1)[C@H]5O4
Response given: rule not met

Challenge: Threshold query (inhibition >= 20%) on O=C1N/C(=N/c2ccccc2F)S/C1=C\c1ccc(C(=O)O)cc1
Response given: rule not met

Challenge: Threshold query (inhibition >= 20%) on Cc1nc(C#Cc2ccnc(Cl)c2)c(C)n1-c1ccc(OC(F)(F)F)cc1
Response given: rule not met

Challenge: Threshold query (inhibition >= 20%) on CCCCN1CCC(COC(=O)c2cc(Cl)c(N)c3c2OCCO3)CC1
Response given: rule met

Challenge: Threshold query (inhibition >= 20%) on OC1(c2ccc(Cl)cc2)CCN(Cc2c[nH]c3ccccc23)CC1
Response given: rule not met

Challenge: Threshold query (inhibition >= 20%) on c1nc(CC2CCNCC2)c[nH]1
Response given: rule not met
